- System: CSF1R-autoinhibited;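 further: KINOMEscan kinase panel screen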
- conditionContext: concentration: 1 μM,replicates: in singlicate; n = 1
measuredQuantity: %Inh (%)
Numeric answer only, unit % assumed.

Example results:
structureString: CNC(=O)c1ccccc1Sc1ccc2c(/C=C/c3ccccn3)n[nH]c2c1
%Inh [%]: 86
//
structureString: CCN(CC)CCCCNc1ncc2cc(-c3c(Cl)cccc3Cl)c(NC(=O)NC(C)(C)C)nc2n1
%Inh [%]: 85
//
structureString: Cl.Cl.NC[C@H](CC1CCCCC1)NC(=O)c1cc(Br)c(-c2ccnc3[nH]ccc23)s1
%Inh [%]: 0

Cc1cc(C(=O)Nc2ccc(Oc3ccc4nc(NC(=O)C5CC5)cn4n3)cc2)nn1-c1ccccc1 on CSF1R-autoinhibited gives %Inh = 0

C[C@@H]1CCN(C(=O)CC#N)C[C@@H]1N(C)c1ncnc2[nH]ccc12 on CSF1R-autoinhibited gives %Inh = 0

Cc1ccc2c(-c3ccncc3)c(-c3ccc(F)cc3)nn2c1.Cl on CSF1R-autoinhibited gives %Inh = 8

COc1ccc(C[C@@H](CN)NC(=O)c2cc(Br)c(-c3ccnc4[nH]ccc34)s2)cc1.Cl.Cl on CSF1R-autoinhibited gives %Inh = 0

CN(C)CCOc1ccc(-c2cc(-c3c[nH]nc3-c3ccccn3)ccn2)cc1 on CSF1R-autoinhibited gives %Inh = 0

O=C(NCCNc1ccnc(NCc2ccc(F)cc2)n1)c1cc2ccccc2s1 on CSF1R-autoinhibited gives %Inh = 0
